- System: MDA‐MB‐231 cells
- method-description: MTT assay
- Assay type: cell-based, human
- settings: Homo sapiens, MDA-MB-231, 72 h
measurement-name: IC50

Q. Item C/C1=C/C(=O)O[C@@H]2C[C@@H](CC[C@H](C)/C=C\C=C\CC1)O[C@@](O)([C@@H]1CSC(=O)N1)C2 [Latrunculin A, reference compound] has what recorded IC50?
A. 24 nM

The reported numbers originate from paper PMC9804882.
